// values below are reported GI50
System: M14
Assay: NCI tumour cell line growth inhibition, 48 h
Active and inactive are the calls of the source. Rule as the data show it: active = GI50 up to about 1.1 µM and inactive = higher. Non-standard residues stand in square brackets, D forms with d. Residues, ends and D or L forms follow the SMILES beside them. *: point of attachment. Bn2Val = CC(C)[C@@H](C(=O)*)N(Cc1ccccc1)Cc1ccccc1; NMeV = CN[C@H](C(=O)O)C(C)C; X32 = COc1ccc(CN*)c(OC)c1; dNMeA = CN[C@H](C)C(=O)O
quantity.name: GI50

{"compound": "COc1ccc(CNC(=O)[C@@H]2CCCN2C(=O)[C@@H](C)N(C)C(=O)[C@H](C(C)C)N(C)C(=O)[C@@H](NC(=O)[C@H](C(C)C)N(Cc2ccccc2)Cc2ccccc2)C(C)C)c(OC)c1 (Bn2Val-V[NMeV][dNMeA]P-X32)", "system.under.test": "M14", "experimental.result": "2.84 µM (inactive)"}
{"compound": "O=C(O)c1ccccc1NC(=S)c1ccccc1", "system.under.test": "M14", "experimental.result": "70.5 µM (inactive)"}
{"compound": "CCc1ccccc1NC(=O)CCc1nnc(S)[nH]1", "system.under.test": "M14", "experimental.result": "> 100 µM (inactive)"}
{"compound": "Cc1ccc(Nc2nc(=O)c3c([nH]c4ccccc43)s2)cc1", "system.under.test": "M14", "experimental.result": "6.59 µM (inactive)"}
{"compound": "O=S(=O)(c1ccccc1)N1N=C2c3ccccc3CCC[C@H]2C1c1ccccc1 (stereo partly drawn)", "system.under.test": "M14", "experimental.result": "> 100 µM (inactive)"}
{"compound": "CC12O[C@]3([C@H](C(=O)N4CCOC43C)[C@H]1Cl)[C@H]1O[C@H]12 (stereo partly drawn)", "system.under.test": "M14", "experimental.result": "> 100 µM (inactive)"}
{"compound": "O=C(Nc1ccccc1)OCc1nc2c([nH]1)C(=O)C=CC2=O", "system.under.test": "M14", "experimental.result": "16 µM (inactive)"}
{"compound": "CS(=O)(=O)c1ccc(-c2cc(-c3ccc(S(C)(=O)=O)cc3)[n+](-c3cc(-c4ccc(S(C)(=O)=O)cc4)c([O-])c(-c4ccc(S(C)(=O)=O)cc4)c3)c(-c3ccc(S(C)(=O)=O)cc3)c2)cc1", "system.under.test": "M14", "experimental.result": "> 100 µM (inactive)"}
{"compound": "CN(CC(=O)O)c1ncc2c(n1)-c1ccccc1OC2", "system.under.test": "M14", "experimental.result": "> 100 µM (inactive)"}
{"compound": "O=c1[nH]c(=O)n(C2CC(O)C(CO)O2)cc1OCCc1ccccc1 (stereo not drawn)", "system.under.test": "M14", "experimental.result": "> 100 µM (inactive)"}
{"compound": "C/C1=C\\CC[C@@]2(C)O[C@@H]2C[C@@H]2[C@H](C/C(C)=C/CC1)OC(=O)[C@]21CO1", "system.under.test": "M14", "experimental.result": "> 100 µM (inactive)"}
{"compound": "COc1ccc2c(c1)-c1nn(CCN(C)C)c3ccc(C(=O)NCCCN(C)CCCNC(=O)c4ccc5c6c(c7cc(OC)ccc7nc46)NN5CCN(C)C)c(c13)N2", "system.under.test": "M14", "experimental.result": "0.0822 µM (active)"}
{"compound": "O=C1C=CC(=O)C1(Br)Br", "system.under.test": "M14", "experimental.result": "18.1 µM (inactive)"}
{"compound": "CCc1c(C#N)c(=O)[nH]c(=O)n1CCN1CCN(C(=O)NCCCCCCNC(=O)N2CCN(CCn3c(CC)c(C#N)c(=O)[nH]c3=O)CC2)CC1", "system.under.test": "M14", "experimental.result": "> 100 µM (inactive)"}
{"compound": "COc1cc(OC)cc(OCc2ccc3nc(-c4ccccc4)c(Cl)nc3c2)c1", "system.under.test": "M14", "experimental.result": "> 100 µM (inactive)"}
{"compound": "CCOC(=O)C1C2CCC(C2)C1(CCl)C(=O)OCC (stereo not drawn)", "system.under.test": "M14", "experimental.result": "> 100 µM (inactive)"}
{"compound": "Cc1cc(Cl)ccc1NC(=O)C(=O)C(C(=O)c1ccc2ccccc2c1)C1OC(=O)c2ccccc21 (stereo not drawn)", "system.under.test": "M14", "experimental.result": "16 µM (inactive)"}
{"compound": "CC(C(O)c1ccccc1)[N+](=O)[O-] (stereo not drawn)", "system.under.test": "M14", "experimental.result": "6.43 µM (inactive)"}

====

Test system: HL-60
Experiment: NCI tumour cell line growth inhibition, 48 h
Activity calls are given as the source filed them. Rule as the data show it: active = GI50 up to about 1.1 µM and inactive = higher.
Property: GI50; scope: individual compounds

{"compound": "CN(C)c1ccc(/N=N\\c2cccc3ccoc23)cc1", "GI50": "23.8 µM (inactive)"}
{"compound": "COc1cc2c(cc1O)Cc1c-2[n+](C)cc2cc(OC)c(OC)cc12", "GI50": "2.75 µM (inactive)"}
{"compound": "COc1ccc(NC=O)c(C(O)CCNC(C)=O)c1 (stereo unspecified)", "GI50": "> 100 µM (inactive)"}
{"compound": "CC(C)Oc1c(C2(c3ccccc3)SCCCS2)c(=O)c1=O", "GI50": "> 100 µM (inactive)"}
{"compound": "O=C1CC(c2ccccc2)n2cccc21 (stereo unspecified)", "GI50": "65.6 µM (inactive)"}
{"compound": "Oc1ccc(O)c(Cc2ccccc2)c1", "GI50": "1.52 µM (inactive)"}
{"compound": "CCc1c(C#N)c(=O)[nH]c(=O)n1CCN1CCN(C(=O)NCCCCCCNC(=O)N2CCN(CCn3c(CC)c(C#N)c(=O)[nH]c3=O)CC2)CC1", "GI50": "> 100 µM (inactive)"}
{"compound": "CN(C)CC1CCC/C(=C\\c2ccc(OC(=O)/C=C/c3ccc(Cl)c(Cl)c3)cc2)C1=O (stereo unspecified)", "GI50": "0.796 µM (active)"}
{"compound": "Cc1ccnc2nc(-c3ccc(Cl)cc3)cc(O)c12", "GI50": "1.58 µM (inactive)"}
{"compound": "O=C1CN(c2cccc(Cl)c2)C(=O)CN1CCN1CC(=O)N(c2cccc(Cl)c2)CC1=O", "GI50": "> 100 µM (inactive)"}
{"compound": "O=C(c1nc2ccc(Cl)cc2nc1O)C(O)c1ccc2c(c1)OCO2 (stereo unspecified)", "GI50": "19.7 µM (inactive)"}

====

System: A549
Test: NCI tumour cell line growth inhibition, 48 h
Activity calls are given as the source filed them. No stated cut-off is given here; in the data, active = GI50 up to about 1.1 µM and inactive = higher.

{"molecule": "COc1cc2c(cc1O)Cc1c-2[n+](C)cc2cc(OC)c(OC)cc12", "GI50": "38 µM (inactive)"}
{"molecule": "O=C1c2ccccc2-c2c1c(-c1ccccc1)c1n2C2(C(=O)c3ccccc3C2=O)C2C(=O)N(c3ccccc3)C(=O)C12 (stereo unspecified)", "GI50": "85.1 µM (inactive)"}
{"molecule": "Cc1nc(O)c2c3c(sc2n1)CCCC3", "GI50": "78.5 µM (inactive)"}
{"molecule": "C=C(C)[C@@H]1CC[C@]2(COC(C)=O)CC[C@]3(C)[C@H](CC[C@@H]4[C@@]5(C)CC[C@H](OC(C)=O)C(C)(C)[C@@H]5CC[C@]43C)[C@@H]12 [BETULIN DIACETATE]", "GI50": "> 50 µM (inactive)"}
{"molecule": "CC(=O)OCC1OC(n2c(N)c(C#N)c(-c3ccccc3)c(C#N)c2=S)C(OC(C)=O)C(OC(C)=O)C1OC(C)=O (stereo unspecified)", "GI50": "> 100 µM (inactive)"}
{"molecule": "COc1ccc(N[S+]([O-])c2ccc(Cl)cc2)cc1 (stereo unspecified)", "GI50": "23.5 µM (inactive)"}
{"molecule": "Cc1cc2ccccc2n2c1nc1ccccc12", "GI50": "> 100 µM (inactive)"}
{"molecule": "CO[C@]12S[C@@H]3CCCC[C@@]31C(C)(C)C(=O)N2c1ccccc1", "GI50": "67.3 µM (inactive)"}
{"molecule": "O=CNc1ccccc1OCCOc1ccccc1NC=O", "GI50": "> 100 µM (inactive)"}
{"molecule": "Oc1ccc(O)c(Cc2ccccc2)c1", "GI50": "37.2 µM (inactive)"}
{"molecule": "O=C(O)c1ccccc1NC(=S)c1ccccc1", "GI50": "51.3 µM (inactive)"}
{"molecule": "Cc1ccc(C(=O)/C=C2/Nc3ccc([N+](=O)[O-])cc3N/C2=C/C(=O)c2ccc(C)cc2)cc1", "GI50": "> 100 µM (inactive)"}
{"molecule": "O=C(CCCc1cccc2[nH]c3c(c12)CN(Cc1ccccc1)CC3)c1ccc(F)cc1", "GI50": "> 95.9 µM (inactive)"}
{"molecule": "O=C1Nc2cccc(Cl)c2/C1=C\\c1c(-c2ccccc2)nc2n1CCS2", "GI50": "18.6 µM (inactive)"}
{"molecule": "CN(C)CCNc1ncnc2nc(-c3ccccc3)c(-c3ccccc3)nc12", "GI50": "> 100 µM (inactive)"}
{"molecule": "[O-][N+]1=[N+]([O-])[C@@H](c2ccccc2)[C@H]1c1ccccc1", "GI50": "19.5 µM (inactive)"}
{"molecule": "CC(C)(Br)C(Br)CCC1(C(Br)CBr)CO1 (stereo unspecified)", "GI50": "> 10 µM (inactive)"}
{"molecule": "C#CCN(N=O)C(=O)ON1C(=O)CCC1=O", "GI50": "> 100 µM (inactive)"}
{"molecule": "CCOC(=O)c1cnc2oc3ccc(O)cc3c2c1-c1ccccc1", "GI50": "32.4 µM (inactive)"}
{"molecule": "COC(=O)NN=C1C(C)(C)C(=NNC(=O)OC)C1(C)C", "GI50": "> 100 µM (inactive)"}
{"molecule": "Cc1ccc2c(=O)cc(Cc3csc4ccccc34)[nH]c2n1", "GI50": "27.4 µM (inactive)"}

Cited source: ChEMBL document CHEMBL1201862
